# test.target: GlnA4 (gamma-glutamylethanolamide synthetase) (Streptomyces coelicolor, UniProt O88070)
# Sequence (O88070 1-462): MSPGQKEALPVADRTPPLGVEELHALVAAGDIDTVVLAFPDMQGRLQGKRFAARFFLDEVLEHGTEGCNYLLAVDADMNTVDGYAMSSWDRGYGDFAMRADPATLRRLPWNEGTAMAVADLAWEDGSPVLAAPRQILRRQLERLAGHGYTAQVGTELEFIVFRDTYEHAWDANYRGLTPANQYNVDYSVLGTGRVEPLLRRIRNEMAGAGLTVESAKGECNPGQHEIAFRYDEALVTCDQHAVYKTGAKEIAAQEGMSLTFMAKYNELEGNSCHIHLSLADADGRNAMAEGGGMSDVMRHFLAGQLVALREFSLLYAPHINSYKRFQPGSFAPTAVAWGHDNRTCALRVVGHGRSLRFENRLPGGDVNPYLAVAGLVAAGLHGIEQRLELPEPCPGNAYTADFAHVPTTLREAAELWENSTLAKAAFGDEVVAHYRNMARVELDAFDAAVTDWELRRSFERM
observed.property: Ki

Please give the measured Ki for this compound: CS(=N)(=O)CC[C@H](N)C(=O)O (stereo partly shown) [methionine sulfoximine] ~11 mM

The measurements presented in this section are drawn from paper PMC6529630.
